Kindly supply the reported EC50 values for the records listed here.
Molecular target: TLR1/TLR2 (Homo sapiens, UniProt O60603+Q15399)
Sequence (Q15399 25-786): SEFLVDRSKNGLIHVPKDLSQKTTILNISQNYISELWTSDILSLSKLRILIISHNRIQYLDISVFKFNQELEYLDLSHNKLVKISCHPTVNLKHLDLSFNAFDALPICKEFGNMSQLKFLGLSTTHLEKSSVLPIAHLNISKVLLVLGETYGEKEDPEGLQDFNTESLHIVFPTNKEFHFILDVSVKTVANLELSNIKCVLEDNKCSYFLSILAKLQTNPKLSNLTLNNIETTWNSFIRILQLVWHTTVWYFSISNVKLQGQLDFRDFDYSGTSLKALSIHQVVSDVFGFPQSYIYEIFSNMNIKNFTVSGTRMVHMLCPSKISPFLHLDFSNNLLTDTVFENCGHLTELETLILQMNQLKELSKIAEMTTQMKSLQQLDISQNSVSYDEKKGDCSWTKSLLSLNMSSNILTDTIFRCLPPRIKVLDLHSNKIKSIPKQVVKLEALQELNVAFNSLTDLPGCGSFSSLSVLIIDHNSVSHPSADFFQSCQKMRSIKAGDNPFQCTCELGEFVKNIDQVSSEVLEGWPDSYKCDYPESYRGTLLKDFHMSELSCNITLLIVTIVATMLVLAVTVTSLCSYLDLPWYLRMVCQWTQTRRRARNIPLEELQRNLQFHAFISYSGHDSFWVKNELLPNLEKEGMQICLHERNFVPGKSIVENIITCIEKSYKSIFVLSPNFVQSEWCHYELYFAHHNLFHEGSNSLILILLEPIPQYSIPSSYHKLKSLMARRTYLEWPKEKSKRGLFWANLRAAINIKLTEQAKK
Sequence (O60603 21-784): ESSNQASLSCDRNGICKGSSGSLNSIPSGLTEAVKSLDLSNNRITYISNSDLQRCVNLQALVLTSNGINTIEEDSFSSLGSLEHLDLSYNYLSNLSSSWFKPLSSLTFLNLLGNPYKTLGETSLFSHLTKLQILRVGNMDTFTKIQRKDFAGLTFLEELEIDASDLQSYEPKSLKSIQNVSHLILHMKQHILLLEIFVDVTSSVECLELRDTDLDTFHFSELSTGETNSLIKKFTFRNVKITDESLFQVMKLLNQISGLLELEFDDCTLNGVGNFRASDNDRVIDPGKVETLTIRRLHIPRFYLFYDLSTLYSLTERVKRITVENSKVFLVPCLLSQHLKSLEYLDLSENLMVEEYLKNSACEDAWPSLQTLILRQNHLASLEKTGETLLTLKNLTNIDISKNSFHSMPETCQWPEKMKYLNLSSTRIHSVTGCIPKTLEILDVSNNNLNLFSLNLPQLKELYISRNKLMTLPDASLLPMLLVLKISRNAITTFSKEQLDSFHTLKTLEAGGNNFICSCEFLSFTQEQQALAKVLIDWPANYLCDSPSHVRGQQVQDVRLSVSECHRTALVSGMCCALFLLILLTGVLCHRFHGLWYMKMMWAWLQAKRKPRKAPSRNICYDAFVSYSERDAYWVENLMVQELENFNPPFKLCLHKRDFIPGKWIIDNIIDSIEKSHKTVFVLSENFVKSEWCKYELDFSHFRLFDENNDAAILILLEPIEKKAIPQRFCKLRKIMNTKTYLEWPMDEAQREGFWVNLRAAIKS
Assay: TNF-α release from PMA-differentiated human THP-1 cells (ELISA);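 also: cells exposed to graded compound concentrations for 4 h, TNF-α quantified in supernatant, LPS as positive and DMSO as negative control, values are duplicate means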
Details: read-out: EC50 (nM) (THP-1): EC50 TNF-α release from human THP-1 cells; Table 1
Reply with just the number (in nM).

Record summary for CC(C)(C)OC(=O)NCCCCCCCCCCCCNC(=O)[C@@H]1CN(C(=O)c2ccc(C(=O)N3C[C@@H](C(=O)N[C@H]4C[C@@H]4c4ccccc4)[C@H](C(=O)N[C@H]4C[C@@H]4c4ccccc4)C3)cc2)C[C@H]1C(=O)N[C@H]1C[C@@H]1c1ccccc1 [Compound 17] : reported EC50 = 0.18

Record summary for O=C(NCc1ccc(F)cc1)[C@@H]1CN(C(=O)c2ccc(C(=O)N3C[C@@H](C(=O)N[C@H]4C[C@@H]4c4ccccc4)[C@H](C(=O)N[C@H]4C[C@@H]4c4ccccc4)C3)cc2)C[C@H]1C(=O)N[C@H]1C[C@@H]1c1ccccc1 [Compound 24] : reported EC50 = 2

Record summary for O=C(NCCCCCCO)[C@@H]1CN(C(=O)c2ccc(C(=O)N3C[C@@H](C(=O)N[C@H]4C[C@@H]4c4ccccc4)[C@H](C(=O)N[C@H]4C[C@@H]4c4ccccc4)C3)cc2)C[C@H]1C(=O)N[C@H]1C[C@@H]1c1ccccc1 [Compound 10] : reported EC50 = 90

Record summary for O=C(NCc1ccccc1)[C@@H]1CN(C(=O)c2ccc(C(=O)N3C[C@@H](C(=O)N[C@H]4C[C@@H]4c4ccccc4)[C@H](C(=O)N[C@H]4C[C@@H]4c4ccccc4)C3)cc2)C[C@H]1C(=O)N[C@H]1C[C@@H]1c1ccccc1 [Compound 22] : reported EC50 = 7

Record summary for O=C(NCCCCCCCCc1ccc(O)cc1)[C@@H]1CN(C(=O)c2ccc(C(=O)N3C[C@@H](C(=O)N[C@H]4C[C@@H]4c4ccccc4)[C@H](C(=O)N[C@H]4C[C@@H]4c4ccccc4)C3)cc2)C[C@H]1C(=O)N[C@H]1C[C@@H]1c1ccccc1 [Compound 26] : reported EC50 = 0.15

Record summary for Nc1ccc(CCCCCCCCNC(=O)[C@@H]2CN(C(=O)c3ccc(C(=O)N4C[C@@H](C(=O)N[C@H]5C[C@@H]5c5ccccc5)[C@H](C(=O)N[C@H]5C[C@@H]5c5ccccc5)C4)cc3)C[C@H]2C(=O)N[C@H]2C[C@@H]2c2ccccc2)cc1 [Compound 27] : reported EC50 = 0.3

Record summary for O=C(NCCc1ccccc1)[C@@H]1CN(C(=O)c2ccc(C(=O)N3C[C@@H](C(=O)N[C@H]4C[C@@H]4c4ccccc4)[C@H](C(=O)N[C@H]4C[C@@H]4c4ccccc4)C3)cc2)C[C@H]1C(=O)N[C@H]1C[C@@H]1c1ccccc1 [Compound 23] : reported EC50 = 1.5

Record summary for O=C(NCCCCCCCCCCCCS)[C@@H]1CN(C(=O)c2ccc(C(=O)N3C[C@@H](C(=O)N[C@H]4C[C@@H]4c4ccccc4)[C@H](C(=O)N[C@H]4C[C@@H]4c4ccccc4)C3)cc2)C[C@H]1C(=O)N[C@H]1C[C@@H]1c1ccccc1 [Compound 21] : reported EC50 = 0.5
